measurement target: T1, SRC SH2 domain (human, UniProt P12931-1 151-248)
T1 construct: SRC, human; also called c-Src; source: bacterial expression, purified
assay comment: fluorescence polarisation; competition: rhodamine peptide 10 nM, protein at four times its KD, unlabeled competitor peptide in 11 serial 1:3 dilutions; Ki from IC50, one-site model
stated conditions: both partners purified
Non-standard residues stand in square brackets, D forms with d. No end group written: not given here. pY = N[C@@H](Cc1ccc(OP(=O)(O)O)cc1)C(=O)O
quantity kind: pKi
// scale note: pKi = -log10(conc_M); give the bare number

q: Name the recorded pKi for EELG[pY]EYMDVGSD (human ErbB3 around Tyr1222; source: synthetic peptide) [ErbB3pY1222 phosphopeptide, unlabeled competitor] .
a: 5.63
